Recorded values, source patent US8471005B2.

Target: ALK (Homo sapiens, UniProt Q9UM73)
Construct: host or cells: baculovirus expression system
Sequence (Q9UM73 19-1620): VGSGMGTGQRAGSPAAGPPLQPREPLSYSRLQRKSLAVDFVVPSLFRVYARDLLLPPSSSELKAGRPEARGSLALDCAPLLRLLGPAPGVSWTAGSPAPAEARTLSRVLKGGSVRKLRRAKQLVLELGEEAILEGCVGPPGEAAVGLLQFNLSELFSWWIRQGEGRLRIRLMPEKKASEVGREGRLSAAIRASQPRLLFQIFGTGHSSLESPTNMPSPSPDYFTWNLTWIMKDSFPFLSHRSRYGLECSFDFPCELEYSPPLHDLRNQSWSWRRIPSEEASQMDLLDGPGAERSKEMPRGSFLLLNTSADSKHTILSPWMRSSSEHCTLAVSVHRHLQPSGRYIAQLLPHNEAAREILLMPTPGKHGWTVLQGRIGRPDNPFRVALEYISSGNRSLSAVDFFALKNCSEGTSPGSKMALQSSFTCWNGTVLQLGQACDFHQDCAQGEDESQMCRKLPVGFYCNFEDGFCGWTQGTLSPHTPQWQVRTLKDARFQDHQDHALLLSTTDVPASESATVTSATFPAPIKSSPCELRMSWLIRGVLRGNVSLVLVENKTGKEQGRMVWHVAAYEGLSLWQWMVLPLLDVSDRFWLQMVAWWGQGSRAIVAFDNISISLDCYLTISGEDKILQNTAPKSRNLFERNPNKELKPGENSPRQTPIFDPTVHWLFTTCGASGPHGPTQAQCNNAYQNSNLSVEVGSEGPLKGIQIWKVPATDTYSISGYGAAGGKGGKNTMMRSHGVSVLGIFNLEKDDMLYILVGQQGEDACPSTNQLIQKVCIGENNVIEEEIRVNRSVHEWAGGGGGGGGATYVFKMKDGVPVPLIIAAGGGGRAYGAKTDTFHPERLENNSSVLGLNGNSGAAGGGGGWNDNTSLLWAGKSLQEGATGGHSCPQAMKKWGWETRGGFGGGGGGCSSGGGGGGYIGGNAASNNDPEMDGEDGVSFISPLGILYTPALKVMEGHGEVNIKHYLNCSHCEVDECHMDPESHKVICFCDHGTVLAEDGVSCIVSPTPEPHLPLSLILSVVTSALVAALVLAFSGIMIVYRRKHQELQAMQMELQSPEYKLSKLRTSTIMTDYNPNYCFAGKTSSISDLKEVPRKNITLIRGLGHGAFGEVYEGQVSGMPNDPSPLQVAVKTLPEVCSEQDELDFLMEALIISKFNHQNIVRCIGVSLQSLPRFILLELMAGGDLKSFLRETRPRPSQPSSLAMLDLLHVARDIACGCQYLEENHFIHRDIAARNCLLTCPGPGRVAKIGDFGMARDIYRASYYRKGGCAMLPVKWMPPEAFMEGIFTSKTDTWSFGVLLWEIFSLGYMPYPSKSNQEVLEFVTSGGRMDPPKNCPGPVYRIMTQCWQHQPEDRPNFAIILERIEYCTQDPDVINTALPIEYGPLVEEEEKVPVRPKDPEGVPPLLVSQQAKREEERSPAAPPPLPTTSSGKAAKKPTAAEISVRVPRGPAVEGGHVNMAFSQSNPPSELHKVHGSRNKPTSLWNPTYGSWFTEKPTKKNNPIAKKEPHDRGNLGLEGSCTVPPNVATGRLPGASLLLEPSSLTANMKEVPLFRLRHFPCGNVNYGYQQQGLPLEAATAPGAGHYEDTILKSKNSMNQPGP
Assay: ALK Kinase Assay (ELISA/TRF, PLC-γ substrate)
Assay type: biochemical
Settings: ALK kinase inhibition, 1 μM ATP; read-out: ALK Potency
property.name: IC50

In [3]: df
Out[3]:
                                   molecule  property_name          result
0  CC(C)(C)NS(=O)(=O)c1cccc(-c2ccc3cnc(Nc4cccc(NS(C)(=O)=O)c4)nn23)c1           IC50  100 to 1000 nM
1  Cn1cc(-c2ccc3cnc(Nc4ccc5c(c4)CCC(N4CCOCC4)CC5)nn23)cn1 (stereo not shown)           IC50  100 to 1000 nM
2  COc1cc(C2CCN(CC(N)=O)CC2)ccc1Nc1ncc2c(C)cc(-c3ccccc3OC)n2n1           IC50        < 100 nM
3  COc1ccc(-c2ccc3cnc(Nc4ccc(C5CCN(C)CC5)c(C)c4)nn23)cn1           IC50        < 100 nM

input: What IC50 value was documented for this molecule, `COc1ccc(-c2ccc3cnc(Nc4ccc5c(c4)CN(C)C5)nn23)cn1` ?
output: 1000 to 10000 nM

input: What IC50 value was documented for this molecule, `COc1ccccc1-c1ccc2cnc(Nc3ccc(C4CCNCC4)nc3)nn12` ?
output: < 100 nM

input: What IC50 value was documented for this molecule, `COc1ccccc1-c1ccc2cnc(Nc3ccc(C4CCN(C(=O)N5CCN(C)CC5)CC4)cc3)nn12` ?
output: < 100 nM

input: What IC50 value was documented for this molecule, `COc1cc(N2CCN(C[C@@H](C)O)CC2)ccc1Nc1ncc2ccc(-c3ccccc3OC)n2n1` ?
output: < 100 nM

input: What IC50 value was documented for this molecule, `CS(=O)(=O)c1ccc(-c2ccc3cnc(Nc4ccc(C5CCN(CCO)CC5)cc4)nn23)cc1` ?
output: < 100 nM

input: What IC50 value was documented for this molecule, `COc1cc(N2CCN(C[C@H](C)O)CC2)ccc1Nc1ncc2ccc(-c3ccccc3OC)n2n1` ?
output: < 100 nM
